- protocol-description: qHTS of pediatric cancer cell lines to identify multiple opportunities for drug repurposing: Primary screen for SK-N-SH cells (AID 1347098); note: nearly all actives have a fitted effect of over 65% in size; note: potency is the fitted concentration of half-maximal effect
- assay-context: SK-N-SH viability, CellTiter-Glo luminescence, 48 h; series mostly up to 57 µM
Results filed as inconclusive are left out. Active and inactive are the calls of the source. Calls come from the whole dose curve; as a rule, active = well fitted cell-killing curve with a large enough effect; inconclusive = small, poorly fitted or top-dose-only effect; inactive = no such curve, though single readings can be large or run the other way.
measured-parameter: Potency

Below, each entry is followed by its recorded Potency result.
{"columns": ["compound", "value-measured"],
 "data": [
  ["CCCNC(=O)NS(=O)(=O)c1ccc(Cl)cc1", "inactive"],
  ["O=C(O)CCc1nc(-c2ccccc2)c(-c2ccccc2)o1", "inactive"],
  ["CCOC(CN1C(=O)[C@](CC(=O)Nc2ccc(C)cc2)(NC(=O)Nc2ccc(C)cc2)c2ccccc21)OCC", "inactive"],
  ["CC(C)C(=O)Nc1ncc(-c2cc(C(F)F)nn2-c2c(Cl)cccc2Cl)s1", "24.1 µM (active)"],
  ["O=C(O)c1c(Cl)c(Cl)c(Cl)c(Cl)c1-c1c2cc(I)c(=O)c(I)c-2oc2c(I)c(O)c(I)cc12", "24.1 µM (active)"],
  ["CC=C(C)C(=O)O[C@H]1C(C)=C[C@]23C(=O)[C@@H](C=C(CO)[C@@H](O)[C@]12O)[C@H]1[C@@H](C[C@H]3C)C1(C)C", "inactive"],
  ["O=C1C[C@@H](c2ccc(O)cc2)Oc2cc(O)cc(O)c21", "inactive"],
  ["C[C@H](NC(=O)c1sccc1OCc1ccc(Cl)cc1)c1ccccc1", "inactive"],
  ["O=C1NC(=O)C(=Cc2ccc3nccnc3c2)S1", "inactive"],
  ["CC(=Cc1ccccc1)C=C1SC(=S)N(CC(=O)O)C1=O", "21.5 µM (active)"]
]}

Entry under test: Cc1nc(N)sc1-c1ccnc(Nc2ccc(N3CCOCC3)cc2)n1 . Its Potency was 6.81 µM (active)

Entry under test: CC(C)(C)OC(=O)N[C@H]1CCCCCC=C[C@@H]2C[C@@]2(C(=O)NS(=O)(=O)C2CC2)NC(=O)[C@@H]2C[C@@H](OC(=O)N3Cc4cccc(F)c4C3)CN2C1=O . Its Potency was inactive

Entry under test: N[C@H](CSC(c1ccccc1)(c1ccccc1)c1ccccc1)C(=O)O . Its Potency was inactive

Entry under test: Cc1ccccc1C(C(=O)NC1CCCCC1)N(C(=O)Cn1ccnc1C)c1cccc(F)c1 (centres undefined) . Its Potency was inactive

Entry under test: COc1cc(Nc2ncc(F)c(Nc3ccc4c(n3)NC(=O)C(C)(C)O4)n2)cc(OC)c1OC . Its Potency was inactive

Entry under test: COc1ccccc1N1CCN(CCCNc2cc(=O)n(C)c(=O)n2C)CC1 . Its Potency was inactive

Entry under test: C[C@@H](O)[C@H]1C(=O)N2C(C(=O)O)=C(S[C@@H]3CN[C@H](C(=O)N(C)C)C3)[C@H](C)[C@H]12 . Its Potency was inactive

Entry under test: NC(=O)c1cccc(-c2cc(Nc3ccc(OC(F)(F)F)cc3)ncn2)c1 . Its Potency was inactive

Entry under test: Cn1cc(C=C2C(=O)Nc3cccnc32)c2ccccc21 . Its Potency was inactive
